System: AsPC-1 (G12D)
Test: KRAS mutant cell proliferation inhibition assay (CellTiter-Glo 3D), AsPC-1
Type: cell-based, human
Details: Homo sapiens, ASPC1, 168 h, AsPC-1 (G12D) cells, 7 days
parameter: IC50 (nM)

// known answers, use as guide
Field IC50 (entry C#Cc1c(F)ccc2cc(O)cc(-c3ncc4c(N(C)[C@H]5C[C@@H]5F)nc(OC[C@@]56CCCN5C[C@@]5(CC5(F)F)C6)nc4c3F)c12 ) reads 25.1

Field IC50 (entry C#Cc1c(F)ccc2cc(O)cc(-c3ncc4c(N5CCCOC6CC65)nc(OC[C@@]56CCCN5C[C@@]5(CC5(F)F)C6)nc4c3F)c12 (stereo partly drawn) ) reads 4.85

Field IC50 (entry CN(C)C(=O)c1cc2n(n1)CCCN(c1nc(OC[C@@]34CCCN3C[C@@]3(CC3(F)F)C4)nc3c(F)c(-c4cc(N)cc(Cl)c4C(F)(F)F)ncc13)C2 ) reads 33.6

Field IC50 (entry CCc1c(F)ccc2cc(O)cc(-c3ncc4c(N5CCCC6(CCO6)C5)nc(OC[C@@]56CCCN5C[C@@]5(CC5(F)F)C6)nc4c3F)c12 (stereo partly drawn) ) reads 11.4

Field IC50 (entry CC1(O)COCCN(c2nc(OC[C@@]34CCCN3C[C@@]3(CC3(F)F)C4)nc3c(F)c(-c4cc(N)cc(Cl)c4C(F)(F)F)ncc23)C1 (stereo partly drawn) ) reads 293

Field IC50 (entry CCc1c(F)ccc2cc(O)cc(-c3ncc4c(N5CCCn6nc(C(=O)N(C)C)cc6C5)nc(OC[C@@]56CCCN5C[C@@]5(CC5(F)F)C6)nc4c3F)c12 ) reads 11.1

(1) CCc1c(F)ccc2cc(O)cc(-c3ncc4c(N5CCC[C@]6(C5)NC(=O)NC6=O)nc(OC[C@@]56CCCN5C[C@@]5(CC5(F)F)C6)nc4c3F)c12
(2) CC(C1CC1)N(C)c1nc(OC[C@@]23CCCN2C[C@@]2(CC2(F)F)C3)nc2c(F)c(-c3cc(N)cc(Cl)c3C(F)(F)F)ncc12 (stereo partly drawn)
(3) CCc1c(F)ccc2cc(O)cc(-c3ncc4c(N5CCC[C@]6(CCO6)C5)nc(OC[C@@]56CCCN5C[C@@]5(CC5(F)F)C6)nc4c3F)c12 (single isomer, unassigned) [Example A-16B]
(4) CCc1c(F)ccc2cc(O)cc(N3CCc4c(nc(OC[C@@]56CCCN5C[C@@]5(CC5(F)F)C6)nc4N4CCCn5nc(C(=O)N(C)C)cc5C4)C3)c12
(5) CCc1c(F)ccc2cc(O)cc(-c3ncc4c(N5CCOCCC5C)nc(OC[C@@]56CCCN5C[C@@]5(CC5(F)F)C6)nc4c3F)c12 (stereo partly drawn)
Rank order required: IC50, descending. # answer = labels listed in requested order
2, 5, 3, 1, 4

###

System: AsPC-1 (G12D)
Experiment: KRAS mutant cell proliferation inhibition assay (CellTiter-Glo 3D), AsPC-1
Assay type: cell-based, human
Conditions: Homo sapiens, ASPC1, 168 h, AsPC-1 (G12D) cells, 7 days
Counter-ions that a name gives are not always drawn.
parameter: IC50 (µM)

Field IC50 (entry C#Cc1c(F)ccc2cc(O)cc(-c3ncc4c(N5CC6CCC(C5)N6)nc(OC[C@@]56CCCN5C[C@H](F)C6)nc4c3F)c12 [MRTX1133, reference compound] ) reads 0.0101

(I) CCc1c(F)ccc2cc(O)cc(N3CCc4c(nc(OCC56CCCN5C[C@@]5(C6)CC5(F)F)nc4N4CCCn5nc(C(=O)N(C)C)cc5C4)C3)c12 (stereo in doubt) [Example B-14, hydrochloride]
(II) CCc1c(F)ccc2cc(O)cc(-c3ncc4c(N(C)[C@H]5C[C@@H]5F)nc(OC[C@@]56CCCN5C[C@@]5(CC5(F)F)C6)nc4c3F)c12 [Example A-45]
Among I and II , which shows a numerically higher IC50 result? Answer with the label corresponding to your selection.
II
